EXPERIMENTAL SYSTEM: T1, Rat Serum Albumin (rat, UniProt P02770 25-608)
T1 construct: mature; purified protein on CM5 chips for BIAcore; also called RSA; rat SA
T1 sequence (P02770 25-608): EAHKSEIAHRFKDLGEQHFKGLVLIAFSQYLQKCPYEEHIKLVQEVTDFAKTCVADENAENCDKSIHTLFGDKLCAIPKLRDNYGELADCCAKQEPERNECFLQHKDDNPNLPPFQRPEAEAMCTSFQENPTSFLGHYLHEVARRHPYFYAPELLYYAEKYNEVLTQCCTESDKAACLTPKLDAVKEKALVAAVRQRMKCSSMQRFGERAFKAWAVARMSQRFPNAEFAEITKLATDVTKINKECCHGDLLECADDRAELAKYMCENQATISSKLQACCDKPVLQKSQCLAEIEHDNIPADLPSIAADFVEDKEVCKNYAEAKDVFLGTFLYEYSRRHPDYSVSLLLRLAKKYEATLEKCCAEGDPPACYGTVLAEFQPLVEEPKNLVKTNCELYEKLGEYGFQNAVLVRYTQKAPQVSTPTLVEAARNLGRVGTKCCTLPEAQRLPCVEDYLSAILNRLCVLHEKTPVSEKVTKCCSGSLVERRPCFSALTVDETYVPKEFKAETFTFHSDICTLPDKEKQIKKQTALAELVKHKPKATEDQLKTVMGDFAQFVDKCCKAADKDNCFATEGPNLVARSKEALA
EXPERIMENT DESCRIPTION: BIAcore SPR;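 note: purified dAbs run at 1 µM, 500 nM and 50 nM over human, cynomolgus, mouse and rat serum albumin in BIAcore binding measurements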
Documented pKd across a set of binders
Please treat pKd as minus the base-10 logarithm of the molar concentration.

// known answers, use as guide
BINDER	ASSAY VALUE
DOM7h-14-10 (other, Vk dAb (AlbudAb)) VL: DIQMTQSPSSLSASVGDRVTITCRASQWIGSQLSWYQQKPGKAPKLLIMWRSSLQSGVPSRFSGSGSGTDFTLTISSLQPEDFATYYCAQGLRHPKTFGQGTKVEIKR	8.40
DOM7h-11-19 (other) VL: DIQMTQSPSSLSASVGDRVTITCRASRPIGTMLSWYQQKPGKAPKLLILFGSRLQSGVPSRFSGSGSGTDFTLTISSLQPEDFATYYCAQTGTHPTTFGQGTKVEIKR	7.55
DOM7h-11 (other) VL: DIQMTQSPSSLSASVGDRVTITCRASRPIGTTLSWYQQKPGKAPKLLIWFGSRLQSGVPSRFSGSGSGTDFTLTISSLQPEDFATYYCAQAGTHPTTFGQGTKVEIKR	5.68

**Q:** Which pKd reading was recorded for the binder DOM7h-14-19 (other, Vk dAb (AlbudAb)) VL: DIQMTQSPSSLSASVGDRVTISCRASQWIGSQLSWYQQKPGEAPKLLIMWRSSLQSGVPSRFSGSGSGTDFTLTISSLQPEDFATYYCAQGAALPRTFGQGTKVEIKR ?
**A:** 6.05

**Q:** Check DOM7h-14 (other, Vk dAb (AlbudAb)) VL: DIQMTQSPSSLSASVGDRVTITCRASQWIGSQLSWYQQKPGKAPKLLIMWRSSLQSGVPSRFSGSGSGTDFTLTISSLQPEDFATYYCAQGAALPRTFGQGTKVEIKR too.
**A:** 7.22

**Q:** Same read-out for DOM7h-11-18 (other) VL: DIQMTQSPSSLSASVGDRVTITCRASRPIGTMLSWYQQKPGKAPKLLIWFGSRLQSGVPSRFSGSGSGTDFTLTISSLQPEDFATYHCAQAGTHPTTFGQGTKVEIKR ?
**A:** 7.10
